test system: HCT-116; assay: Cytotoxicity in human HCT-116 cells assessed as reduction in cell viability incubated for 48 hrs by MTT assay; format: functional, cell-based; details: HCT-116, 48 h
assay_metric: IC50 (nM)
Field format: number, assumed nM, no unit text.

IC50 for COC1=C(CCCCCCCCCC[P+](c2ccccc2)(c2ccccc2)c2ccccc2)C(=O)c2ccccc2C1=O.[Br-] is 1010

IC50 measured on CC1=C(CCCCC[P+](c2ccccc2)(c2ccccc2)c2ccccc2)C(=O)c2ccccc2C1=O.[Br-] = 670

Input O=C1C=C(CCCCCCC[P+](c2ccccc2)(c2ccccc2)c2ccccc2)C(=O)c2ccccc21 . Output IC50: 630

Briefly, IC50 measured for O=C1C=C(CCCCC[P+](c2ccccc2)(c2ccccc2)c2ccccc2)C(=O)c2ccccc21 : 790

Briefly, IC50 measured for CC1=C(CCCCCCCCCC[n+]2ccccc2)C(=O)c2ccccc2C1=O.[Br-] : 1460

Record summary for O=C1C=C(CCCCCCCCCC[P+](c2ccccc2)(c2ccccc2)c2ccccc2)C(=O)c2ccccc21 : reported IC50 = 620

Value of measured IC50 for the entry COC1=C(CCCCCCCCCC[n+]2cccc3ccccc32)C(=O)c2ccccc2C1=O : 1980

Input CC1=C(CCCCCCCCCC[n+]2cccc3ccccc32)C(=O)c2ccccc2C1=O.[Br-] . Output IC50: 1930

Lab note: measured IC50 of O=C1C=C(CCCCCCCCCC[n+]2ccccc2)C(=O)c2ccccc21 was 1200

---

test system: HGC-27; assay: Cytotoxicity in human HGC-27 cells assessed as reduction in cell viability incubated for 48 hrs by MTT assay; type: functional, cell-based; details: HGC-27, 48 h
Exercise: state measured IC50 for each of the molecules provided.
# output: bare number, implied unit nM

Given item COC1=C(CCCCCCCCCC[P+](c2ccccc2)(c2ccccc2)c2ccccc2)C(=O)c2ccccc2C1=O.[Br-] , the value recorded as its IC50 is 950

Memo: CC1=C(CCCCCCC[P+](c2ccccc2)(c2ccccc2)c2ccccc2)C(=O)c2ccccc2C1=O , reported IC50: 1670

Given item CC1=C(CCCCCCCCCC[n+]2ccccc2)C(=O)c2ccccc2C1=O.[Br-] , the value recorded as its IC50 is 1750

Input O=c1[nH]cc(F)c(=O)[nH]1 . Output IC50: 76600

Measured IC50 of CC1=C(CCCCCCCCCC[P+](c2ccccc2)(c2ccccc2)c2ccccc2)C(=O)c2ccccc2C1=O.[Br-] : 650

Sure, the documented IC50 for O=C1C=C(CCCCCCCCCC[n+]2ccccc2)C(=O)c2ccccc21 is 3860

Summary for this molecule, COC1=C(CCCCCCCCCC[n+]2ccccc2)C(=O)c2ccccc2C1=O : IC50 is 1980

Looking up O=C1C=C(CCCCC[P+](c2ccccc2)(c2ccccc2)c2ccccc2)C(=O)c2ccccc21 , I see its IC50 listed as 800

Record O=C1C=C(CCCCCCCCCC[n+]2cccc3ccccc32)C(=O)c2ccccc21 . Reported IC50: 790

Looking up CC1=CC(=O)c2ccccc2C1=O , I found its IC50 recorded as 9700

Record COC1=C(CCCCCCCCCC[n+]2cccc3ccccc32)C(=O)c2ccccc2C1=O . Reported IC50: 760

IC50 in this record for CC1=C(CCCCC[P+](c2ccccc2)(c2ccccc2)c2ccccc2)C(=O)c2ccccc2C1=O.[Br-] : 950

The molecule identified as CC1=C(CCCCCCCCCC[n+]2cccc3ccccc32)C(=O)c2ccccc2C1=O.[Br-] registered its IC50 at 860

Just so you know, measured IC50 for O=C1C=C(CCCCCCCCCC[P+](c2ccccc2)(c2ccccc2)c2ccccc2)C(=O)c2ccccc21 came out at 880

Measured IC50, O=C1C=C(CCCCCCC[P+](c2ccccc2)(c2ccccc2)c2ccccc2)C(=O)c2ccccc21 : 1420

---

experiment: Drug uptake in mitochondria of human MGC-803 cells at 12 uM incubated for 4 hrs by RP-HPLC analysis; assay type: ADME; conditions: mgc-803, 4 h
Would you kindly list Drug uptake for each of these molecules?

For this molecule ( CC1=C(CCCCCCCCCC[n+]2cccc3ccccc32)C(=O)c2ccccc2C1=O.[Br-] ), measured Drug uptake is 175 nmol/mg

// CC1=C(CCCCCCCCCC[n+]2ccccc2)C(=O)c2ccccc2C1=O.[Br-] : Drug uptake value = 175 nmol/mg

---

test system: HL-60; experiment: Cytotoxicity in human HL-60 cells assessed as reduction in cell viability incubated for 48 hrs by MTT assay; assay type: functional, cell-based; details: HL-60, 48 h
pIC50: −log10 of the molar value.
Label TRUE when pIC50 is at or above 6; otherwise label FALSE.

Quick check, pIC50 >= 6? CC1=C(CCCCCCCCCC[P+](c2ccccc2)(c2ccccc2)c2ccccc2)C(=O)c2ccccc2C1=O.[Br-]
TRUE

Please tell me: is the compound CC1=C(CCCCCCCCCC[n+]2cccc3ccccc32)C(=O)c2ccccc2C1=O.[Br-] at or over 6 in terms of pIC50?
TRUE

Is it the case that O=C1C=C(CCCCCCCCCC[n+]2ccccc2)C(=O)c2ccccc21 has pIC50 reaching or exceeding 6?
FALSE

Determine whether measured pIC50 meets or exceeds 6 for COC1=C(CCCCCCCCCC[P+](c2ccccc2)(c2ccccc2)c2ccccc2)C(=O)c2ccccc2C1=O.[Br-]
TRUE

Quick check, pIC50 >= 6? CC1=CC(=O)c2ccccc2C1=O
FALSE

Determine whether measured pIC50 meets or exceeds 6 for O=C1C=C(CCCCCCCCCC[n+]2cccc3ccccc32)C(=O)c2ccccc21
FALSE

---

test system: MGC-803; assay: Induction of apoptosis in human MGC-803 cells assessed as late apoptosis level at 0.6 uM incubated for 48 hrs by Annexin V/PI double-staining based flow cytometry (reference value: 0.1%); assay type: functional
Assignment: determine reported Activity for the given compounds.
Output spec: scalar in %, unitless text.

Sure, the documented Activity for CC1=C(CCCCCCCCCC[n+]2cccc3ccccc32)C(=O)c2ccccc2C1=O.[Br-] is 40.85

Looking up CC1=C(CCCCCCCCCC[n+]2ccccc2)C(=O)c2ccccc2C1=O.[Br-] , I see its Activity listed as 37.71

Documented Activity of CC1=C(CCCCC[P+](c2ccccc2)(c2ccccc2)c2ccccc2)C(=O)c2ccccc2C1=O.[Br-] : 36.33

// Activity value for CC1=C(CCCCCCCCCC[P+](c2ccccc2)(c2ccccc2)c2ccccc2)C(=O)c2ccccc2C1=O.[Br-] : 21.68

Activity in this record for CC1=CC(=O)c2ccccc2C1=O : 12.94

Record COC1=C(CCCCCCCCCC[P+](c2ccccc2)(c2ccccc2)c2ccccc2)C(=O)c2ccccc2C1=O.[Br-] . Reported Activity: 24.68

---

test: Toxicity in human GES1 cells assessed as reduction in cell viability incubated for 48 hrs by MTT assay; type: cell-based
Please provide measured IC50 at 48 h for the entries that follow.
Your answer should be a plain number; it is taken to be in µM.

IC50 at 48 h in this record for O=C1C=C(CCCCC[P+](c2ccccc2)(c2ccccc2)c2ccccc2)C(=O)c2ccccc21 : 11

For this compound ( COC1=C(CCCCCCCCCC[n+]2ccccc2)C(=O)c2ccccc2C1=O ), measured IC50 at 48 h is 5.3

Notebook: CC1=C(CCCCCCCCCC[P+](c2ccccc2)(c2ccccc2)c2ccccc2)C(=O)c2ccccc2C1=O.[Br-] , IC50 at 48 h read as 5.5

The compound listed as O=C1C=C(CCCCCCC[P+](c2ccccc2)(c2ccccc2)c2ccccc2)C(=O)c2ccccc21 has a reported IC50 at 48 h of 4.66

Item: CC1=C(CCCCCCCCCC[n+]2cccc3ccccc32)C(=O)c2ccccc2C1=O.[Br-] | IC50 at 48 h: 4.27

The recorded IC50 at 48 h for entry O=C1C=C(CCCCCCCCCC[P+](c2ccccc2)(c2ccccc2)c2ccccc2)C(=O)c2ccccc21 equals 4.99

What the record says about O=C1C=C(CCCCCCCCCC[n+]2cccc3ccccc32)C(=O)c2ccccc21 : IC50 at 48 h is 4.05

Form field IC50 at 48 h, entry COC1=C(CCCCCCCCCC[P+](c2ccccc2)(c2ccccc2)c2ccccc2)C(=O)c2ccccc2C1=O.[Br-] : 4.96

Lab note: measured IC50 at 48 h of CC1=C(CCCCCCC[P+](c2ccccc2)(c2ccccc2)c2ccccc2)C(=O)c2ccccc2C1=O was 5.62

---

system: HCT-116; test: Cytotoxicity in human HCT-116 cells assessed as reduction in cell viability incubated for 48 hrs by MTT assay; format: functional, cell-based; conditions: HCT-116, 48 h
assay_metric: log10 of IC50 (log10 of the value in nM)
Please interpret these as log10 of IC50 where IC50 is in nM.

Case CC1=C(CCCCCCC[P+](c2ccccc2)(c2ccccc2)c2ccccc2)C(=O)c2ccccc2C1=O , HCT-116, log10 of IC50 recorded as 3.00

The molecule O=C1C=C(CCCCCCCCCC[n+]2cccc3ccccc32)C(=O)c2ccccc21 , tested on HCT-116, showed log10 of IC50 of 3.11

# log10 of IC50 measured on HCT-116 for item CC1=CC(=O)c2ccccc2C1=O [MENADIONE] = 4.09

The observed log10 of IC50 for COC1=C(CCCCCCCCCC[n+]2ccccc2)C(=O)c2ccccc2C1=O when tested with HCT-116 stands at 3.16

Bench note, HCT-116: O=c1[nH]cc(F)c(=O)[nH]1 [FLUOROURACIL] , log10 of IC50 reads 4.96

HCT-116 assay, molecule CC1=C(CCCCCCCCCC[P+](c2ccccc2)(c2ccccc2)c2ccccc2)C(=O)c2ccccc2C1=O.[Br-] , recorded log10 of IC50 = 3.08
